# Tested on: LXRa homodimer (NR concentration 270 nM)
# procedure_text: PBM binding z-score (relative to random genomic background probes); higher = stronger binding; sequences stand for … in GC…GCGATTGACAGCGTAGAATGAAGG
parameter: PBM binding z-score

Use the examples below as a reference point.
# sequence_code, measured_result
data = [
    ("CCGAGTCGGTTATGGGGCATTCAGGCAACGGTGA", -0.49),
    ("CAAACTAGGTCACGAAAGGTCAAAGGCGAATGAC", 7.26),
    ("TCTTGTAGATCAAGCATGTTAAGAAAGCCTGAGT", -0.106),
    ("CGTCAAAGTTCAACTAAGGTAACCTAAAGCACGC", 4.45),
]

Read off the recorded PBM binding z-score for CCTACTGGGCCATCAGGTCATTGTTATCAACGTT 1.14

Hey, just so you know, these numbers are from the supplement of paper PMC6555819.
